Target: Hepcidin (Homo sapiens) (UniProt P81172)
Sequence (whole entry): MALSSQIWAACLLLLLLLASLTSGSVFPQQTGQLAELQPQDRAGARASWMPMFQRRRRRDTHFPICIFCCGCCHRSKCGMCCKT
Test: Inhibition of human hepcidin-stimulated recombinant C-terminal Halo-tagged human FPN internalization in MDCK cells at 10 uM incubated for 15 to 20 mins by Halo-tagged TMR based fluorescence assay relative to control
Format: cell-based
Readout name: inhibition

For orientation, consider the following solved cases.
O=C(Oc1c(CN2CCOCC2)cc(Cl)c2cccnc12)c1ccco1: < 50%
Oc1c(C(c2ccc(Cl)cc2)N2CCOCC2)cc(Cl)c2cccnc12 (stereo unspecified): < 50%
O=C(Oc1c(CN2CCOCC2)cc(Cl)c2cccnc12)c1ccccc1: < 50%
COc1cc(C(=O)Oc2c(CN3CCOCC3)cc(Cl)c3cccnc23)cc(OC)c1OC: < 50%
Oc1c(C(Nc2ccccn2)c2cccnc2)cc(Cl)c2cccnc12 (stereo unspecified): < 50%

Let us move to another entry and its inhibition.
Quick check: inhibition of Oc1c(C(c2ccccn2)N2CCOCC2)ccc2cccnc12 (stereo unspecified) ?
> 50%
